The measured values listed here are drawn from patent US20240384268A1.

Measured TLR9 500 nM by item
- SYSTEM_UNDER_TEST: human TLR9 (Homo sapiens)
- Construct: HA; host or cells: 293XL-hTLR9-HA (HEK293)
- Sequence (Q9NR96 26-1032): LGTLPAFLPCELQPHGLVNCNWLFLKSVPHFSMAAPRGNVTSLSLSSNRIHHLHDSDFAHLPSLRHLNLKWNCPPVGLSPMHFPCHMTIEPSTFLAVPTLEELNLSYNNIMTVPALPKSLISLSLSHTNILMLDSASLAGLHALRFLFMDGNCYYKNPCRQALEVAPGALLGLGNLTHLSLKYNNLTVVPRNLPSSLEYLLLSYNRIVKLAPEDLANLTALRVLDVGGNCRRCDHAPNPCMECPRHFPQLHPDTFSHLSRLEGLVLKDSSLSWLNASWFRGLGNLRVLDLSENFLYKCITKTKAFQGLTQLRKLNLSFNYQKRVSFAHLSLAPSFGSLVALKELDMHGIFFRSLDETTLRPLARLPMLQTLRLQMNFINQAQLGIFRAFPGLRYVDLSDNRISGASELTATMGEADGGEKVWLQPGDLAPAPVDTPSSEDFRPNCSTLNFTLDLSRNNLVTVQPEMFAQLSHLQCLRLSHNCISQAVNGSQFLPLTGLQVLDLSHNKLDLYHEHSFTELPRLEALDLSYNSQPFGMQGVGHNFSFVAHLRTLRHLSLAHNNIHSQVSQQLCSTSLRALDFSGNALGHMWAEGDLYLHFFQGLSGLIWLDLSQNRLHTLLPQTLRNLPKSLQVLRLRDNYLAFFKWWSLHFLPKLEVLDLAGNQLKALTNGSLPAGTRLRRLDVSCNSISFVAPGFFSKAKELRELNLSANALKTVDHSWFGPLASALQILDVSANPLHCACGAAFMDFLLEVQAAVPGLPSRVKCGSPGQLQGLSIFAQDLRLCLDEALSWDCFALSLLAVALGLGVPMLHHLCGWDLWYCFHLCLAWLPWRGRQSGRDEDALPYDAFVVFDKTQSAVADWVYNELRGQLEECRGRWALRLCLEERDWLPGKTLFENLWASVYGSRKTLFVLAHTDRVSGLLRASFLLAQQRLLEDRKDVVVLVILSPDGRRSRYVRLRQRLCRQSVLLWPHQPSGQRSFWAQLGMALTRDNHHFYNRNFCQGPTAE
- TEST_SUMMARY: HEK-TLR9 NF-κB-luciferase reporter, ODN2006 stimulation
- Format: cell-based
- CONDITION_PARAMETERS: MOE-modified ASO at 500 nM; averaged NF-κB-Luciferase relative to ODN2006 condition
- Protocol: In such examples, inhibition of TLR9 activity can be identified by observation of an overall decreased TLR9 response of the cell population, or a lower proportion of cells having TLR9-positive activity as compared to positive control condition in which cells are treated with TLR9 agonist in the absence of the oligonucleotide (or in the presence of an appropriate control inhibitory agent). […] TLR9 activity can then be determined by a luciferase assay. […]

| ORDERED_RESIDUES | TLR9 500 nM |
| --- | --- |
| CGGAGGTCTTGGCTTCGTGG (antisense; 2'-MOE modified, pattern not given here) [MB21D1-525 MOE] | 0.556 |
| GGGTATCGAAAGAGTCTGGA (antisense; 2'-MOE modified, pattern not given here) [EGFR-3908 MOE] | 0.203 |
| TCAAAGGACTGAGGAAAGGG (antisense; 2'-MOE modified, pattern not given here) [CAMSAP1-6273 MOE] | 0.040 |
| TCCAACACTTCGTGGGGTCC (antisense; 2'-MOE modified, pattern not given here) [HPRT-667 MOE] | 0.616 |
| ATGTGATGGCCTCCCATCTC (antisense; 2'-MOE modified, pattern not given here) [HPRT-333 MOE] | 0.918 |
| GATGGCCTCCCATCTCCTTC (antisense; 2'-MOE modified, pattern not given here) [HPRT-329 MOE] | 1.268 |
| GGCATCCACCACGTCGTCCA (antisense; 2'-MOE modified, pattern not given here) [EGFR-3266 MOE] | 0.481 |

* * *

- SYSTEM_UNDER_TEST: human TLR7 (Homo sapiens, UniProt Q9NYK1)
- Construct: HA; host or cells: 293XL-hTLR7-HA (HEK293)
- Sequence (Q9NYK1 27-1049): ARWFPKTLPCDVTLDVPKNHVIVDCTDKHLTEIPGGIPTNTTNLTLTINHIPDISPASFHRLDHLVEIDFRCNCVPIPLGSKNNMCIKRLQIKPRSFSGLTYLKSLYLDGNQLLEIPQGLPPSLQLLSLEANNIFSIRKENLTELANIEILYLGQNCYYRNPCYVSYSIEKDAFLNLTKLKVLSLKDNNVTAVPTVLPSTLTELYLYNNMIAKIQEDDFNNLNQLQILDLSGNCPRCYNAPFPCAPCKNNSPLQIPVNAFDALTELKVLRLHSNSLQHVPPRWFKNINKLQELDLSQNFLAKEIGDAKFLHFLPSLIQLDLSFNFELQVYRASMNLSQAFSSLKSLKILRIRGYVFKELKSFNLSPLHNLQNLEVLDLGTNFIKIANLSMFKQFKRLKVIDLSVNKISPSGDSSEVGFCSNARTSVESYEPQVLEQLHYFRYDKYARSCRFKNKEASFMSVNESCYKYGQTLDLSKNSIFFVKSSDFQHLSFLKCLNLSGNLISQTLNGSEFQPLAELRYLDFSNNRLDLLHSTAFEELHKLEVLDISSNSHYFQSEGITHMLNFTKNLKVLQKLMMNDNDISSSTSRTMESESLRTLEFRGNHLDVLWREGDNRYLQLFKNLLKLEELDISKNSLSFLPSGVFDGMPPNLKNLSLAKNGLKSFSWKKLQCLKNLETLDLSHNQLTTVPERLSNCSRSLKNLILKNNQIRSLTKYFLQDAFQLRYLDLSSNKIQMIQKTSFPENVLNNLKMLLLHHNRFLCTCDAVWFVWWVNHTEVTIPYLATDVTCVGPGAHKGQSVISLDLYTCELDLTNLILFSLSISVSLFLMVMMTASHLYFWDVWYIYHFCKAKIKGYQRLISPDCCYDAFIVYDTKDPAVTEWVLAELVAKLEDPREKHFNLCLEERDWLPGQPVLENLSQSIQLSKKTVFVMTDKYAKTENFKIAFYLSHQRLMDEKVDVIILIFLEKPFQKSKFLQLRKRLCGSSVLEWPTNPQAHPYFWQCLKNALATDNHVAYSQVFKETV
- TEST_SUMMARY: HEK-TLR7 NF-κB-luciferase reporter, R848 stimulation
- Type: cell-based
- CONDITION_PARAMETERS: MOE-modified ASO at 500 nM; averaged NF-κB-Luciferase relative to R848 condition
Criterion: TLR7 500 nM strictly under 0.2. Met: Yes. Not met: No.

| ORDERED_RESIDUES | ASSIGNED_CATEGORY |
| --- | --- |
| ACACTTCGTGGGGTCCTTTT (antisense; 2'-MOE modified, pattern not given here) [HPRT-663 MOE] | No |
| TGTGATGGCCTCCCATCTCC (antisense; 2'-MOE modified, pattern not given here) [HPRT-332 MOE] | No |
| TCCAACACTTCGTGGGGTCC (antisense; 2'-MOE modified, pattern not given here) [HPRT-667 MOE] | No |
| TTTGCACACTTCGTACCCAA (antisense; 2'-MOE modified, pattern not given here) [CAMSAP1-4916 MOE] | Yes |
| GGAGCTTCGAGGCCCCAGGC (MOE modified, pattern not given here) [MB21D1-616 MOE] | Yes |
| AATCCGCCCAAAGGGAACTG (antisense; 2'-MOE modified, pattern not given here) [HPRT-1027 MOE] | No |
